assay: logP by HPLC (EEC Directive 79/831 Annex V.A8); format: physicochemical; settings: [b] LC-MS, acidic range, pH 2.7, 0.1% aqueous formic acid and acetonitrile
The following compounds are shown together with reported logP values.

Solved entries:
- Cc1cc(C(F)(F)F)nn1CC(=O)N1CCN(c2nc(C(=O)OC3CCc4ccccc4C3)cs2)CC1 (centres unmarked): 3.87
- Cc1nc(CC(=O)N2CCC(c3nc(C(=O)OC4CCCCC4)cs3)CC2)c(C)s1: 3.02^[b]
- Cc1noc(C)c1NC(=O)N1CCC(c2nc(C(=O)OC3CCCc4ccccc43)cs2)CC1 (centres unmarked): 2.97^[b]
- O=C(OCc1c(F)cccc1F)c1cnc(C2CCN(C(=O)Cn3nc(C(F)F)cc3C(F)F)CC2)s1: 3.45^[b]
- Cc1ccc(Cl)c(NC(=O)N2CCC(c3nc(C(=O)OC4CCCc5ccccc54)cs3)CC2)c1 (centres unmarked): 4.61^[b]
- O=C(OC1CCCCC1)c1csc(C2CCN(C(=O)Cc3ccsc3)CC2)n1: 3.42^[b]
- Cc1ccc(C)c(NC(=O)N2CCC(c3nc(C(=O)Oc4ccccc4Cl)cs3)CC2)c1: 3.51^[b]

We next turn to a different compound, shown below.
Bench note: what logP did COc1ccc(Cl)cc1NC(=O)N1CCC(c2nc(C(=O)OC3CCCc4ccccc43)cs2)CC1 (centres unmarked) show?
4.64^[b]
